The reported measurements were obtained from the RNAGym collection of RNA variant scans (doi:10.1073/pnas.2313332121).

B1: TPR 5TU (parent)
chain: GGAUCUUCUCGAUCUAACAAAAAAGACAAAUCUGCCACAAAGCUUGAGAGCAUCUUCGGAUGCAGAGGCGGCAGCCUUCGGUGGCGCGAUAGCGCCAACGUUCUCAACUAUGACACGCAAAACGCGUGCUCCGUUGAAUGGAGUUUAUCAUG

variants of: B1; experiment: polymerase ribozyme fitness, log enrichment relative to wild type (log ratio); higher = more active; in vitro selection for triplet polymerase activity
Variants at the floor of the assay were thinned out.
Rule: polymerase ribozyme fitness (log ratio) of -2 or more gives 1.0; anything lower gives 0.0.

Here's what some known entries look like.
variantId	classAssignment
U7C G25U U31C G62C C75U G117U A122G	0.0
A30U G70A	0.0
G58A G59A C96A	1.0

Q: Tell me whether polymerase ribozyme fitness (log ratio) is at least -2 here: G100A A107U
A: 0.0

Q: Tell me whether polymerase ribozyme fitness (log ratio) is at least -2 here: C10G G84A
A: 0.0

Q: Tell me whether polymerase ribozyme fitness (log ratio) is at least -2 here: A23C C57U G74C G92U U102A A115C G143C U151A
A: 0.0

Q: Tell me whether polymerase ribozyme fitness (log ratio) is at least -2 here: G59C C75U A98U
A: 1.0

Q: Tell me whether polymerase ribozyme fitness (log ratio) is at least -2 here: A21G G88A U90C U127C U135G C149U
A: 0.0

Q: Tell me whether polymerase ribozyme fitness (log ratio) is at least -2 here: A47U C95U
A: 1.0

Q: Tell me whether polymerase ribozyme fitness (log ratio) is at least -2 here: C14U U53G
A: 0.0
